Where these numbers come from: the supplement of paper PMC12042874

Test: amyloid nucleation score (Sup35N fusion, yeast selection) (log enrichment); library NNK3; higher = more nucleation; inactive = no reads after selection;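 note: zero at mode of non-aggregating sequences after 7 days selection at 30°C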
assay-readout: amyloid nucleation score

Record excerpt, results attached:
- substance: "GERVSSESGRMPLPLCCYLV"
  amyloid nucleation score: "inactive"
- substance: "QVDISNLDCQSCRDKRVGLG"
  amyloid nucleation score: "inactive"
- substance: "FGIKFVIQVDCRHIMHNCVN"
  amyloid nucleation score: 0.077
- substance: "CTKWGGVSVISCQLAVSAKI"
  amyloid nucleation score: "inactive"
- substance: "DRLHSCYCCTIVHRFYRNYD"
  amyloid nucleation score: "inactive"

Next substance, amyloid nucleation score to be filled in.
(Q) Provide amyloid nucleation score value for the following substance: SSWLLLAGKIW
(A) inactive
